Would you kindly list melting point for each of these compounds?
Counter-ions that a name gives are not always drawn.

melting point recorded for this compound, CN1CCC[C@@H]1COc1cncc(-c2ccc(Cl)cc2)c1.Cl.Cl , is 223 to 225 °C

melting point recorded for this compound, CN1CCC[C@H]1COc1cnc(Cl)c(Br)c1.Cl.Cl , is 189 to 191 °C

melting point recorded for this compound, CN1CCC[C@H]1COc1cncc(-c2ccc(Cl)cc2)c1.Cl.Cl , is 224 to 226 °C

melting point recorded for this compound, CN1CCC[C@@H]1COc1cnc(Cl)c(CCc2ccncc2)c1.Cl.Cl.Cl , is 236 to 238 °C

melting point recorded for this compound, CC(C)(C)C=CC=Cc1cc(OC[C@H]2CCCN2)cnc1Cl.Cl.Cl , is 190 to 192 °C

melting point recorded for this compound, C=CCc1cc(OC[C@@H]2CCCN2C)cnc1Cl.Cl , is 150 to 152 °C

melting point recorded for this compound, C#Cc1cc(OC[C@@H]2CCCN2)cnc1Cl (as salt: hydrochloride) , is 214 to 216 °C

melting point recorded for this compound, CN1CCC[C@H]1COc1cncc(-c2ccc3ccccc3c2)c1 (as salt: hydrochloride) [Example 31, Dihydrochloride] , is 248 to 251 °C

melting point recorded for this compound, CN1CCC[C@H]1COc1cncc(-c2cnc3ccccc3c2)c1 (as salt: hydrochloride) [Example 35, Trihydrochloride] , is 184 to 186 °C

melting point recorded for this compound, CN1CCC[C@@H]1COc1cnc(Cl)c(C=Cc2ccncc2)c1 (as salt: hydrochloride) [Example 82, Dihydrochloride] , is 220 to 222 °C (dec.)

melting point recorded for this compound, Cl.Cl.c1ccc(-c2cncc(OC[C@@H]3CCCN3)c2)cc1 , is 134 to 136 °C
